The reported measurements were obtained from the supplement of paper PMC10567573.

B1: SPATS1 (parent)
chain: GRKKYDIDPRNGIPKLTPGDNPYM

variants of: B1; experiment: protein stability index of a GFP-peptide fusion (GPS, HEK-293T) (PSI 1-6); higher = more stable; details: c terminus: a fixed tail appended;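 also: lentivirally expressed fusions sorted by FACS into six bins by GFP to DsRed ratio, PSI derived from sequencing read proportions per bin multiplied by bin number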
property-measured: protein stability index

- mutation-notation: "G19V"
  property-measured: "protein stability index"
  observed-result: 2.88
- mutation-notation: "Y23G"
  property-measured: "protein stability index"
  observed-result: 4.04
- mutation-notation: "K15S"
  property-measured: "protein stability index"
  observed-result: 3.69
- mutation-notation: "K3H"
  property-measured: "protein stability index"
  observed-result: 3.67
- mutation-notation: "R2Q"
  property-measured: "protein stability index"
  observed-result: 3.59
- mutation-notation: "K15C"
  property-measured: "protein stability index"
  observed-result: 3.04
- mutation-notation: "D8H"
  property-measured: "protein stability index"
  observed-result: 2.82
- mutation-notation: "M24T"
  property-measured: "protein stability index"
  observed-result: 4.04
- mutation-notation: "D20C"
  property-measured: "protein stability index"
  observed-result: 3.47
- mutation-notation: "P14E"
  property-measured: "protein stability index"
  observed-result: 4.16
- mutation-notation: "P18I"
  property-measured: "protein stability index"
  observed-result: 3.27
- mutation-notation: "Y23Q"
  property-measured: "protein stability index"
  observed-result: 4.56
- mutation-notation: "P18A"
  property-measured: "protein stability index"
  observed-result: 3.86
- mutation-notation: "P18W"
  property-measured: "protein stability index"
  observed-result: 2.73
- mutation-notation: "K15F"
  property-measured: "protein stability index"
  observed-result: 2.97
- mutation-notation: "R10I"
  property-measured: "protein stability index"
  observed-result: 3.57
- mutation-notation: "L16R"
  property-measured: "protein stability index"
  observed-result: 3.59
- mutation-notation: "I13H"
  property-measured: "protein stability index"
  observed-result: 4.04
- mutation-notation: "Y5M"
  property-measured: "protein stability index"
  observed-result: 3.65
- mutation-notation: "N21L"
  property-measured: "protein stability index"
  observed-result: 2.88
- mutation-notation: "D20I"
  property-measured: "protein stability index"
  observed-result: 2.18
- mutation-notation: "M24Q"
  property-measured: "protein stability index"
  observed-result: 4.02
- mutation-notation: "P22Y"
  property-measured: "protein stability index"
  observed-result: 3.44
- mutation-notation: "K15Y"
  property-measured: "protein stability index"
  observed-result: 2.96
- mutation-notation: "K4V"
  property-measured: "protein stability index"
  observed-result: 3.29
- mutation-notation: "D8L"
  property-measured: "protein stability index"
  observed-result: 3.16
- mutation-notation: "N21P"
  property-measured: "protein stability index"
  observed-result: 3.54
